# credit: PubChem BioAssay

- assay notes: COS7 lysate on small-molecule microarray, probe aHis, 635 nm (AID 1123);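 note: z-score combines 667nm fluorescence intensity with signal-to-noise per printed compound spot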
- run conditions: COS7 cell lysate, fluorescence, higher = more signal
measured metric: composite z-score
Kindly provide the number alone.

Given item `O=C1C[C@]2(c3ccc([N+](=O)[O-])cc3)C(=O)N(CC(F)(F)F)c3cc(CO)ccc3[C@H]2N1C1CCCCC1` , the value recorded as its composite z-score is 0.0971

Given item `O=C(NCCN1CCOCC1)[C@@H]1c2ccccc2C(=O)N(C2CCCCC2)[C@H]1c1ccc(CO)cc1` , the value recorded as its composite z-score is 1.29

Given item `CCc1cccc(NC(=O)O[C@H]2[C@H](OC(=O)Nc3ccccc3-c3ccccc3)[C@@H](OC(=O)Nc3ccccc3-c3ccccc3)[C@@H](OC)O[C@@H]2CO)c1` , the value recorded as its composite z-score is 2.8

Given item `COC(=O)c1c(CC[C@@H](CO)NC(=O)NCCn2cc(C3(O)CCCC3)nn2)oc(C(C)=O)c1C(=O)OC` , the value recorded as its composite z-score is 0.603

Given item CC(C)c1ccc(NN2C(C(O)c3ccc(B(O)O)cc3)C=CC3C(=O)N(c4ccccc4)C(=O)C32)cc1 (stereo not given) , the value recorded as its composite z-score is 2.32

Given item `CC(C)N1C(=O)c2ccccc2[C@](C)(C(=O)NCCN2CCOCC2)[C@@H]1c1ccc(CO)cc1` , the value recorded as its composite z-score is 2.48

Given item `COC(=O)[C@@]1(Cc2ccccc2)N=C(c2ccc(OCCCO)cc2)O[C@H]1c1ccccc1` , the value recorded as its composite z-score is 2.76

Given item CC(C)C[C@@H]1NC(=O)[C@H](C(C)C)NC(=O)[C@@]23C(=O)N[C@@H](Cc4ccccc4)C2[C@H](C)[C@@]2(C)O[C@H]2C3/C=C/CC/C=C/CNC1=O (stereo not given in full) , the value recorded as its composite z-score is 1.28

Given item `COCCOC(=O)N1C(=O)[C@@]2(c3cc(C#CCNC(N)=O)ccc31)[C@H](C(=O)Nc1nc3ccccc3s1)[C@H]1C(=O)O[C@H](c3ccccc3)[C@H](c3ccccc3)N1[C@@H]2c1ccc(OCCO)cc1` , the value recorded as its composite z-score is 0.481

Given item `COc1cc2c(cc1OC)CN(C(=O)[C@@H]1[C@H]3C(=O)O[C@H](c4ccccc4)[C@H](c4ccccc4)N3[C@H](c3ccccc3OCCO)[C@@]13C(=O)Nc1ccc(C#CCCO)cc13)CC2` , the value recorded as its composite z-score is 1.88

Given item CCC(CC)C(O)C1C=CC2C(=O)NC(=O)C2N1Nc1ccccn1 (stereo not given) , the value recorded as its composite z-score is 0.864

Given item `CN(C)C(=O)[C@@]1(CCS(=O)(=O)c2ccccc2)COC(c2ccc(OCCCO)cc2)=N1` , the value recorded as its composite z-score is 2.28

Given item `COCCCNC(=O)[C@@H]1c2ccccc2C(=O)N(Cc2ccccc2Cl)[C@H]1c1ccc(CO)cc1` , the value recorded as its composite z-score is 1.72

Given item `CNS(=O)(=O)c1ccc(C)cc1` , the value recorded as its composite z-score is 0.284

Given item `COC(=O)[C@@]1(Cc2ccc(OC)cc2)[C@@H]2C(=CC(=O)[C@H]2CC(=O)C(=O)N2CCCC2)CN1C(=O)c1ccccc1` , the value recorded as its composite z-score is 2.23
